target: Estrogen receptor (Homo sapiens) (UniProt P03372); assay: OT_ER_ERaERa_1440: Odyssey Thera (OT) 24-hour HEK293T Protein-Complementation Assay for Estrogen Receptor-alpha/-alpha Homodimer (AID 2283349);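 note: hits raise fluorescence above DMSO for agonists and antagonists alike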
Sequence (P03372 whole entry, looked up): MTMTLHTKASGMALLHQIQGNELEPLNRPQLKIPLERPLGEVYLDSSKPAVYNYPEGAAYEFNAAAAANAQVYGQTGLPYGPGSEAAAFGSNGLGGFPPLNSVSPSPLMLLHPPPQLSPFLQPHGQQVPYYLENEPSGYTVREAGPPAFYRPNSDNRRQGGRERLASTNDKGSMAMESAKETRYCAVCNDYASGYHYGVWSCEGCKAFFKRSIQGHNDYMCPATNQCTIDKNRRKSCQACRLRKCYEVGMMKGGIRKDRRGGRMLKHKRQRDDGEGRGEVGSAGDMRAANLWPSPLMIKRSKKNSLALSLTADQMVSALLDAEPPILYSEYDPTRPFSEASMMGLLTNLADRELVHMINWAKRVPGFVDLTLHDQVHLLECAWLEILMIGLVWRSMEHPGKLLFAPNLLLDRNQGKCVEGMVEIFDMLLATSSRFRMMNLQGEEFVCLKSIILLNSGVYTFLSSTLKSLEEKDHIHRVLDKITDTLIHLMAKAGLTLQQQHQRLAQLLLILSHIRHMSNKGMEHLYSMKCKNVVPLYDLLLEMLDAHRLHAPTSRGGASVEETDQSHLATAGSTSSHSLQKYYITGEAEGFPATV
The source made the active and inactive calls. Rule for the calls: active = hit-call score of the fitted dose curve at least 0.9, where 1 is the maximum; inconclusive = response in the unintended direction; inactive = score below 0.9.
measured-parameter: outcome

Past entries and their recorded results:
Input: Given the compound c1cc2c3c(cccc3c1)CC2 , write its reported outcome.
Output: inactive

Input: Fill in reported outcome for this entry: ClC(Cl)(Cl)c1ccccc1
Output: inactive

Input: State its outcome for this compound: O=C(O)C(Cl)Cl
Output: inactive

Input: Supply measured outcome of Cc1ccc([N+](=O)[O-])cc1C in your reply.
Output: inactive

With those in mind, consider the next compound.
Input: Identify measured outcome corresponding to O=[N+]([O-])c1ccc(Cl)c(Cl)c1
Output: inactive
